The entries below come with measured half-life values attached.
Test: In vitro ADME: RLM stability
Details: rat liver microsomes; read-out: Rat Liver Microsome Stability (t1/2)
Output should be the measured figure followed by the unit it is expressed in.

| molecular.string | half-life |
| --- | --- |
| O=C(c1ccccc1C(F)(F)F)c1no[n+]([O-])c1C(=O)c1ccccc1C(F)(F)F | 2.34 min |

# next molecule below
Look at this molecule and give its reported half-life. COc1ccccc1C(=O)c1no[n+]([O-])c1C(=O)c1ccccc1OC.O=C(O)C(F)(F)F
1.52 min

----------
Biological target: CIB1 and αIIb interaction (CIB1-GST : F-αIIb peptide) (Homo sapiens, UniProt Q99828)
Construct: made in house; host or cells: BL-21 plus RIL cells (E. coli)
Sequence (Q99828 1-191): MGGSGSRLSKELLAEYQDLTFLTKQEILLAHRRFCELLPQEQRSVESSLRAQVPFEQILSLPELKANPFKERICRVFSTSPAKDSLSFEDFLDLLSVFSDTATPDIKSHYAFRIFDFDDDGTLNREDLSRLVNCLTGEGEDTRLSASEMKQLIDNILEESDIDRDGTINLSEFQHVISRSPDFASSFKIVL
Assay: FP assay, 1536-well qHTS format (primary and confirmatory screen)
Assay type: binding
Settings: confirmatory screen
The entries below come with measured Efficacy (%) (confirmatory screen) values attached.
Form entry: value (%) — number only.

Look at this molecule and give its reported Efficacy (%) (confirmatory screen). NC[C@@H](O)c1ccc(O)c(O)c1.O=C(O)C(O)C(O)C(=O)O
-31

Look at this molecule and give its reported Efficacy (%) (confirmatory screen). C=C1C(=O)O[C@@H]2[C@H]3C(C)=CC(=O)C3=C(C)[C@@H](OC(=O)/C(C)=C\C)[C@H](O)[C@@H]12
-43

Look at this molecule and give its reported Efficacy (%) (confirmatory screen). CCCC(=O)c1cc(O)c(O)cc1O
-145

Look at this molecule and give its reported Efficacy (%) (confirmatory screen). O=C(O)c1cnn(-c2nc3cc(Cl)c(OC(F)(F)F)cc3[nH]2)c1
-39

----------
The entries below come with measured 384-well SCREEN Efficacy (%) values attached.
Target: CIB1 and αIIb interaction (GST-CIB1 : F-αIIb peptide) (Homo sapiens)
Construct: made in house; host or cells: BL-21 plus RIL cells (E. coli)
Sequence (Q99828 1-191): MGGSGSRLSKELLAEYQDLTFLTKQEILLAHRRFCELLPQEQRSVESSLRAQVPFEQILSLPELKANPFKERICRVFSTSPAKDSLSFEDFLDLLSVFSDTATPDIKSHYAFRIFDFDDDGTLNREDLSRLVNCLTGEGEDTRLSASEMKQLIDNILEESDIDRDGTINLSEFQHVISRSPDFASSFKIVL
Test: FP assay, 384-well format (screen)
Format: binding
Parameters: concentration or dose not given beside the values
Conditions: F-αIIb peptide
Form entry: value (%) — number only.

Below are worked cases with known answers.
| molecule | 384-well SCREEN Efficacy (%) |
| --- | --- |
| O=C(c1cccs1)c1no[n+]([O-])c1C(=O)c1cccs1 | 76 |
| Cc1cc(S(=O)(=O)Nc2cnccc2C(=O)Nc2nc(-c3ccccc3)cs2)c(C)o1.O=C(O)C(F)(F)F | 42 |
| O=C(Nc1nc(-c2ccccc2)cs1)c1ccncc1NS(=O)(=O)c1ccccc1Cl.O=C(O)C(F)(F)F | 32 |

Look at this molecule and give its reported 384-well SCREEN Efficacy (%). O=c1sc2ccccc2c(O)c1C1CC(c2ccc(-c3ccc(Br)cc3)cc2)Cc2ccccc21 (stereo not shown)
87

Look at this molecule and give its reported 384-well SCREEN Efficacy (%). COC(=O)C12C(=O)C(C)(O)C(=O)C1(C)C(C)=CC1C34CCC(OC3=O)C(C)(CO)C4CCC12C (stereo not shown)
80

Look at this molecule and give its reported 384-well SCREEN Efficacy (%). N#Cc1cnc(NS(=O)(=O)c2ccc(NC(=O)Cc3ccc(F)c(Cl)c3)cc2)s1.O=C(O)C(F)(F)F
36

Look at this molecule and give its reported 384-well SCREEN Efficacy (%). O=c1[nH]sc2cc(Cl)ccc12 [NCGC00262908-01, ticlatone, reference compound]
79
